TEST METHOD NOTES: serotonin-gated TRPC4 signal block – cell-based, second counter screen, HEK293 TRPC4/5HT1a, Fluo-4, counter-screen for TRPC4 inhibitor project, confirmation (AID 434978)
EXPERIMENTAL CONDITIONS: Fluo-4 calcium flux, at 10 µM, serotonin added to trigger calcium flux
Active and inactive are the calls of the source.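 How the source made its calls: active means primary screen active whose calcium signal fell more than 3 SD beyond the full-serotonin control mean in both duplicate plates; inactive means the rest.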
Classes used: active, inactive

# COMPOUND, ASSIGNED CATEGORY
records = [
    ("COc1ccc(C)c(NC(=O)NCCc2cnc[nH]2)c1", "inactive"),
    ("CC1=CC(=O)C(C(C)C)=C/C1=N/OS(=O)(=O)c1ccccc1", "inactive"),
    ("CCCCn1c(SCC(=O)OCC)nc2c(sc(=S)n2-c2ccccc2OC)c1=O", "active"),
    ("CCN(Cc1ccccc1)S(=O)(=O)c1ccc(C(=O)N(CCCN(C)C)c2nc3c(F)cccc3s2)cc1", "inactive"),
    ("CSc1ccc2nnc(-c3cccc(F)c3)n2n1", "inactive"),
    ("COc1ccccc1N(C(=O)c1snc(C(N)=O)c1N)C(C(=O)NCc1ccccc1)c1ccc(C)o1 (stereo not given)", "active"),
    ("CCc1c(C(=O)N2CCCN(C)CC2)csc1C", "inactive"),
    ("CC(=O)N1CCN(c2ccccc2NC(=O)c2ccc3ccccc3c2)CC1", "active"),
    ("C=CCc1cc(Cl)ccc1OCCCn1ccnc1", "inactive"),
    ("CC(=O)Nc1ccc(S(=O)(=O)N2CCN(CCCOc3cc(C)ccc3C)CC2)cc1", "inactive"),
    ("OCCCNc1c2ccccc2nc2ccccc12", "active"),
    ("O=C(c1cccc([N+](=O)[O-])c1)N1CCCC(C(=O)N2CCCCCC2)C1 (stereo not given)", "inactive"),
    ("CCCCCCCNC(=O)COc1ccc2c(c1)C(=O)CC(C)(C)O2", "active"),
    ("COc1ccc(CN2CCN(C(=O)c3ccc(F)cc3)CC2)c(OC)c1", "active"),
    ("Cc1nn(-c2cccc(Cl)c2)c2nc(C(F)(F)F)[nH]c(=O)c12", "active"),
    ("CCOC(=O)c1c(-c2ccc(OC)cc2)oc2ccc(O)cc12", "inactive"),
    ("COc1ccc(-n2cc(CNCc3cccnc3)c(-c3cccc(F)c3)n2)cc1", "inactive"),
    ("Cc1cccc(-n2nc(C)c3c(C(=O)O)cc(-c4cccs4)nc32)c1", "active"),
    ("O=C(Cn1c(NCCCO)nc2ccccc21)c1ccc(Br)cc1", "active"),
    ("COC(=O)c1ccc(Nc2cc(C)nc3ccccc23)cc1", "active"),
    ("COc1ccc(NS(=O)(=O)c2cccc(C(=O)N3CCN(Cc4cc(OC)ccc4OC)CC3)c2)cc1", "inactive"),
    ("CCOC(=O)C1(Cc2cccc(F)c2)CCN(Cc2cnn(CC)c2)CC1", "inactive"),
    ("CCN1C(=O)/C(=C/C=C2\\N(CC)c3cc(S(=O)(=O)N(C)C)ccc3N2c2ccccc2)SC1=S", "inactive"),
    ("CC(=O)n1cc([C@H]2C=C(C(=O)NCc3ccccc3)O[C@@H](OCc3ccc(CO)cc3)C2)c2ccccc21", "inactive"),
    ("O=C(c1ccccc1)c1coc2ccc(O)c(CN3CCOCC3)c12", "inactive"),
    ("CCOc1ccc(-n2cnnn2)cc1S(=O)(=O)NCc1ccccc1", "inactive"),
    ("CN(C)c1ccc(/C=C/C(=O)c2c(O)c3ccccc3oc2=O)cc1", "inactive"),
    ("CCCN1C2=NCCN2c2cc(C)c(C)cc21", "active"),
    ("O=C(O)c1ccc(Cl)cc1Nc1nc2cc(Cl)ccc2o1", "active"),
    ("CCCCOc1ccc(CSCCN=C(N)N)cc1", "active"),
    ("Cc1[nH]nc(-c2ccc(O)cc2O)c1-c1ccc(Cl)cc1", "active"),
    ("O=C(c1sc2ccccc2c1Cl)N(Cc1ccccc1)C1CCS(=O)(=O)C1 (stereo not given)", "inactive"),
    ("NC(=O)c1nsc(C(=O)N(Cc2ccccc2Cl)C(C(=O)NCC2CCCO2)c2ccc(O)cc2)c1N (stereo not given)", "active"),
    ("CCCn1c(=O)c2ccccc2n2c(SCCOc3ccccc3)nnc12", "active"),
    ("Cc1ccc2[nH]c3c(N4CCc5ccccc5C4)ncnc3c2c1", "inactive"),
    ("C=CCc1ccccc1OCC(O)CN1CCN(c2ccccc2OC)CC1 (stereo not given)", "active"),
    ("Cc1cc(C)nc(Nc2nc(=O)c3ccccc3s2)n1", "inactive"),
    ("COCCn1c(SCC(=O)c2ccccc2)nc2ccccc2c1=O", "active"),
    ("Cc1ccc(Nc2c(N)c(=O)oc3ccccc23)cc1", "inactive"),
    ("CCOc1cc(CNCCCN2CCOCC2)cc(Br)c1OCc1ccccc1Cl", "inactive"),
]

###

Test system: TRPC4 beta (transient receptor potential cation channel C4), mouse
TEST METHOD NOTES: potentiation of DAMGO EC20 TRPC4 response – cell-based, Fluo-4, HEK293 TRPC4beta/mu-opioid, confirmation (AID 2555)
EXPERIMENTAL CONDITIONS: DAMGO EC20, Fluo-4 calcium flux, at 10 µM; active compounds read high
The source made the active and inactive calls.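 The calls were made as follows: active = primary screen hit whose calcium fluorescence ratio, in both repeats, exceeds the weak agonist control mean by 3 SD; inactive = the rest.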

# COMPOUND, potentiation
data = [
    ("Cc1noc(C)c1S(=O)(=O)N1CCC(C(=O)NCCCN2CC(C)CC(C)C2)CC1 (stereo not drawn)", "inactive"),
    ("Cc1ccccc1C(=O)NC1CC2CCC(C1)N2Cc1ccccc1 (stereo not drawn)", "inactive"),
    ("Fc1ccc(CN2CCC(Cc3ccccc3)CC2)cc1F", "inactive"),
]

###

TEST SYSTEM: Short transient receptor potential channel 4 (Mus musculus) (UniProt Q9QUQ5)
Sequence (Q9QUQ5 whole entry, looked up): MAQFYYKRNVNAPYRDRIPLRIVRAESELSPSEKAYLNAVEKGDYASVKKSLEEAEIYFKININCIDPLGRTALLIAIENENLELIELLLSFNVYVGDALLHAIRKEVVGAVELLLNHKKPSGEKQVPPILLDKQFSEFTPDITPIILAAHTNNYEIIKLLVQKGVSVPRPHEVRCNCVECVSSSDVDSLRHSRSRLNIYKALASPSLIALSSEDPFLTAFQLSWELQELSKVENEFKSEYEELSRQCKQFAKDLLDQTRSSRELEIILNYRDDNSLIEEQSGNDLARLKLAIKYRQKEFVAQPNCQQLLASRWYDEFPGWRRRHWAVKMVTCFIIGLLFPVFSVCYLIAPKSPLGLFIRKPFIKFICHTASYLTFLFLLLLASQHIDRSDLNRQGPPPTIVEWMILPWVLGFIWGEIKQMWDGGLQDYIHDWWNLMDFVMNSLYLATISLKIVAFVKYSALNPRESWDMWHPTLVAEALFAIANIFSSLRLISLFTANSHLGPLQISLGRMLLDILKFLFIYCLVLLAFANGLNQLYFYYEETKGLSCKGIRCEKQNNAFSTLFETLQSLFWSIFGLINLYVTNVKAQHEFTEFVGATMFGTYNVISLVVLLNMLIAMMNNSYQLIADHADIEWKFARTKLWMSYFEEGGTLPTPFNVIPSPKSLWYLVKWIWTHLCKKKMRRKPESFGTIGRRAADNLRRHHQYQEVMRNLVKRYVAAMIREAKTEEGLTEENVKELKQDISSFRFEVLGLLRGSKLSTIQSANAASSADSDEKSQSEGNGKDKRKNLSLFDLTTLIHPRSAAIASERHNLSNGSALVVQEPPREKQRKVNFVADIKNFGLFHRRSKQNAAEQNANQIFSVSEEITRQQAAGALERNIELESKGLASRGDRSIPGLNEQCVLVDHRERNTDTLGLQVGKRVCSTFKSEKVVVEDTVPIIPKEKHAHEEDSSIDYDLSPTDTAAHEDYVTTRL
TEST METHOD NOTES: blockers of DAMGO-evoked TRPC4 calcium flux – cell-based, Fluo4, HEK293 TRPC4beta/mu-opioid, confirmation (AID 2636)
EXPERIMENTAL CONDITIONS: at 10 µM; active compounds read high
Active and inactive are the calls of the source.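 The calls were made as follows: active = calcium signal cut by more than 3 SD below the full-agonist control yet still positive, in both repeats and the earlier primary screen; inactive = the rest.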
OBSERVED PROPERTY: inhibition

# MOLECULE, RESULT
records = [
    ("COc1ccc(C(=O)N2CCN(c3c(C)cccc3C)CC2)cc1OC", "inactive"),
    ("CN(CCOc1ccc(Br)cc1)CC(O)c1ccccc1 (stereo not drawn)", "inactive"),
    ("CCN(CC)c1nc2ccccc2c(N)c1-c1ccccc1", "89% (active)"),
    ("CC1CCc2c(C(=O)N3CCN(S(=O)(=O)c4cccs4)CC3)csc2C1 (stereo not drawn)", "inactive"),
    ("COc1ccc(CSCCN)cc1Cl", "inactive"),
    ("COc1cccc(NC(=O)COc2c(F)c(F)c(C(F)(F)F)c(F)c2F)c1", "inactive"),
    ("COc1ccc(C(CNC(=O)/C=C/c2c(Cl)nc3ccccn23)N(C)C)cc1 (stereo not drawn)", "inactive"),
    ("COCCn1c(SCC(=O)c2ccccc2)nc2ccccc2c1=O", "91% (active)"),
    ("O=C1CC2(CCN(S(=O)(=O)c3ccccc3)CC2)Oc2ccccc21", "inactive"),
    ("C=C(C)Cn1c(SCC)nc2ccccc2c1=O", "96% (active)"),
    ("Cc1ccc(C)c2nc3sc(C(=O)O)cc3cc12", "83% (active)"),
    ("CC1(c2ccccc2)CC(C)(C)N(C(=O)C2CCCO2)c2ccccc21 (stereo not drawn)", "90% (active)"),
    ("Cc1ccc(-c2c(C(=O)N/N=C/c3ccc(OC(C)C)cc3)nnn2-c2nonc2N)cc1", "inactive"),
    ("O=C(c1ccco1)N1CCN(C/C=C/c2ccccc2)CC1", "87% (active)"),
    ("Cc1cccc(C)c1NC(=O)NCCCN1CCN(c2ccccc2)CC1", "inactive"),
    ("Cc1nn(C(=O)CNS(=O)(=O)c2ccccc2)c(C)c1Sc1ccc(Cl)cc1", "89% (active)"),
    ("COc1ccc(/C=C/C(=O)Oc2cc(O)cc(O)c2)cc1", "96% (active)"),
    ("Cc1cccc(Cn2c(C(C)(C)C)cc3cccnc32)c1", "95% (active)"),
    ("Cc1cc(Nc2ccc3c(c2)OCCO3)c2cccc(C)c2n1", "inactive"),
    ("O=c1[nH][nH]c(-c2ccccc2)c1C=Nc1ccc(Cl)cc1", "inactive"),
    ("CCOc1cc(CNCc2cccs2)ccc1OCC(=O)NC(C)(C)C", "98% (active)"),
    ("NC(N)=NN=C1CCC(c2ccccc2)CC1 (stereo not drawn)", "inactive"),
    ("OCCNCc1cc(Br)ccc1OCc1ccccc1", "inactive"),
    ("CCC1C=C(c2ccccc2)C=CN=C1N(CC)CC (stereo not drawn)", "93% (active)"),
    ("c1ccc2c3c([nH]c2c1)CCNC3", "inactive"),
    ("CCc1cccc(C)c1NC(=S)NCC(c1cccnc1)N(C)C (stereo not drawn)", "inactive"),
    ("Clc1ccc(C[n+]2cc(-c3ccccc3)n3c2CCC3)cc1Cl", "93% (active)"),
    ("CCN(CC)c1ccc(CNc2nc3ccccc3n2CCN2CCCCC2)cc1", "inactive"),
    ("Cn1c(=O)c2c(nc(SCc3cccnc3)n2Cc2ccc(F)cc2)n(C)c1=O", "79% (active)"),
    ("CSCC(C)N1CCC(CO)(CCCc2ccccc2)CC1 (stereo not drawn)", "inactive"),
    ("CC(C)(C)CC(C)(C)NCC(O)COc1ccc2c(c1)CCC2 (stereo not drawn)", "100% (active)"),
    ("CN(C)c1ccc(C(=S)N2CCN(c3ccc([N+](=O)[O-])cc3)CC2)cc1", "inactive"),
    ("NC(=O)c1ccc(Oc2ccc3c(c2)CCC3)c([N+](=O)[O-])c1", "inactive"),
    ("CN(C)CCCN(C(=O)CCc1ccccc1)c1nc2ccc(F)cc2s1", "inactive"),
    ("O=C(c1ccccc1F)N1CCN(c2ccc([N+](=O)[O-])cc2-n2cccc2)CC1", "inactive"),
    ("CCOc1ccc(-n2cnnn2)cc1S(=O)(=O)NCc1ccccc1", "inactive"),
    ("CCc1ccccc1NC(=S)N(CCCN(C)C)Cc1cc2cc3c(cc2[nH]c1=O)OCO3", "94% (active)"),
    ("FC(F)Oc1ccccc1NC(=S)Nc1cccc(Cl)c1Cl", "77% (active)"),
    ("O=C(NC(=S)NNC(=O)c1cccs1)c1ccc(Br)o1", "inactive"),
    ("Oc1c(CN2CCCCC2)cc(Br)c2cccnc12", "93% (active)"),
    ("O=C(Nc1nnc2n1CCS2)c1ccc(Br)o1", "inactive"),
    ("CC1(C#CC[N+]2(C)CCCCC2)CCC2C(O1)c1ccccc1OC2(C)C (stereo not drawn)", "inactive"),
    ("COc1ccc(-n2nc(C(=O)NCC(=O)NCCCN3CC(C)CC(C)C3)c3ccccc3c2=O)cc1Cl (stereo not drawn)", "inactive"),
]
